experiment: chemical genetic growth profiling, strain panel (AID 1159580);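 note: tested at 20 µM; growth read once vehicle control cultures reached saturation at 30 °C; lower values mean less growth of the strain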; details: S. cerevisiae deletion strains, growth OD, locus YMR307W, strain GAS1, hits give low values
Among all 5,500 compounds or so, about 2,000 (36%) were called active. Not shown: some 18% with an inconclusive outcome. The list shows a part of the results.
Criterion: normalized growth strictly less than 1. Met: satisfied. Not met: not satisfied.

1. CCCCCCCCCCCC[C@H](C(=O)O)[C@@H](C)C(=O)O    not satisfied
2. Nc1ccccc1C(=O)N/N=C\c1cccc2ccccc12    satisfied
3. CCN(CC)c1ccc(NC(=O)c2c(F)cccc2F)c(N(CC)CC)n1    satisfied
4. Cc1cc(C(C)(C)C)c(O)c(C(C)(C)C)c1    satisfied
5. O=c1cc(CO)occ1O    not satisfied
6. Cc1cc(O)cc(C)c1Cl    satisfied
7. Cc1cc(C)cc(NC(=S)N2CCN(c3ncc(C(F)(F)F)cc3Cl)CC2)c1    satisfied
8. Cc1cc(O)ccc1Cl    satisfied
9. Cc1cccc(NC(=S)NC2CC3C=CC2C3)c1 (stereo not drawn)    satisfied
